Reference source for all entries: patent US11590109B2

assay_summary: in vitro
experimental_parameters: African green monkey
One threshold, 30 µM, splits the recorded CC50 values: lower ones are T, equal or higher ones are F.

{"cpd_smiles": "Cc1ccc(/C=N/Nc2nc(-c3ccccc3Cl)cs2)c(C(=O)O)c1", "category": "F"}
{"cpd_smiles": "CN(/N=C/c1ccc(F)cc1C(=O)O)c1nc(-c2ccccc2Cl)cs1", "category": "T"}
{"cpd_smiles": "O=C(O)c1cc(C(F)(F)F)ccc1/C=N/Nc1nc(-c2ccccc2Cl)cs1", "category": "F"}
{"cpd_smiles": "Cc1ccc(/C=N/N(C)c2nc(-c3ccccc3Cl)cs2)c(C(=O)O)c1", "category": "T"}
{"cpd_smiles": "CN(/N=C/c1ccc(C(F)(F)F)cc1C(=O)O)c1nc(-c2ccccc2Cl)cs1", "category": "T"}
{"cpd_smiles": "O=C(O)c1cc(F)c(F)cc1/C=N/Nc1nc(-c2ccccc2Cl)cs1", "category": "F"}
